- target: farnesyl protein transferase (H-ras) (Homo sapiens, UniProt P49354+P49356)
- assay_overview: FPT IC50 (H-ras), inhibition of farnesyl protein transferase, in vitro enzyme assay
Listed here: items and their measured pIC50.
Just so you know, pIC50 here is -log10 of the concentration in molar units; reply with that number alone.

Examples from the recorded data:
{"molecule": "O=C(CC1CCN(c2nnnn2-c2ccccc2)CC1)N1CCC([C@H]2c3ncc(Br)cc3CCc3cc(Cl)cc(Br)c32)CC1 [Formula 2.0]", "quantity": "pIC50", "reported": 7.51}
{"molecule": "CC(=O)OC[C@H]1O[C@@H](N2CCC(CC(=O)N3CCC([C@H]4c5ncc(Br)cc5CCc5cc(Cl)cc(Br)c54)CC3)CC2)[C@H](OC(C)=O)[C@@H](OC(C)=O)[C@@H]1OC(C)=O [Formula 9.3]", "quantity": "pIC50", "reported": 8.34}
{"molecule": "O=C(CC1CCN(c2ccccn2)CC1)N1CCC([C@H]2c3ncc(Br)cc3CCc3cc(Cl)cc(Br)c32)CC1 [Formula 5.0]", "quantity": "pIC50", "reported": 7.97}

Req: So what pIC50 did O=C(CC1CCN(c2nccs2)CC1)N1CCC([C@H]2c3ncc(Br)cc3CCc3cc(Cl)cc(Br)c32)CC1 [Formula 3.0] get with farnesyl protein transferase (H-ras) (Homo sapiens, UniProt P49354+P49356)?
Resp: 6.85

Req: Record: O=C(CC1CCN(c2nc3ccccc3o2)CC1)N1CCC([C@H]2c3ncc(Br)cc3CCc3cc(Cl)cc(Br)c32)CC1 [Formula 4.0]
Resp: 7.80

Req: And for O=C(CC1CCN(c2ncccn2)CC1)N1CCC([C@H]2c3ncc(Br)cc3CCc3cc(Cl)cc(Br)c32)CC1 [Formula 6.0] ?
Resp: 7.70

Reference for the values: patent US5985879A
